# study.target: mouse ADAMTS7 (Mus musculus, UniProt Q68SA9, E373Q)
# Construct: Full-length mouse Adamts7 1-1857 (Uniprot Q68SA9, WT or E373Q catalytic mutant); expressed in transfected cells; host or cells: Human Coronary Artery Smooth Muscle Cells (HCA-SMC, Lonza), adenovirus 50 MOI
# Sequence (Q68SA9 221-1657 E373Q): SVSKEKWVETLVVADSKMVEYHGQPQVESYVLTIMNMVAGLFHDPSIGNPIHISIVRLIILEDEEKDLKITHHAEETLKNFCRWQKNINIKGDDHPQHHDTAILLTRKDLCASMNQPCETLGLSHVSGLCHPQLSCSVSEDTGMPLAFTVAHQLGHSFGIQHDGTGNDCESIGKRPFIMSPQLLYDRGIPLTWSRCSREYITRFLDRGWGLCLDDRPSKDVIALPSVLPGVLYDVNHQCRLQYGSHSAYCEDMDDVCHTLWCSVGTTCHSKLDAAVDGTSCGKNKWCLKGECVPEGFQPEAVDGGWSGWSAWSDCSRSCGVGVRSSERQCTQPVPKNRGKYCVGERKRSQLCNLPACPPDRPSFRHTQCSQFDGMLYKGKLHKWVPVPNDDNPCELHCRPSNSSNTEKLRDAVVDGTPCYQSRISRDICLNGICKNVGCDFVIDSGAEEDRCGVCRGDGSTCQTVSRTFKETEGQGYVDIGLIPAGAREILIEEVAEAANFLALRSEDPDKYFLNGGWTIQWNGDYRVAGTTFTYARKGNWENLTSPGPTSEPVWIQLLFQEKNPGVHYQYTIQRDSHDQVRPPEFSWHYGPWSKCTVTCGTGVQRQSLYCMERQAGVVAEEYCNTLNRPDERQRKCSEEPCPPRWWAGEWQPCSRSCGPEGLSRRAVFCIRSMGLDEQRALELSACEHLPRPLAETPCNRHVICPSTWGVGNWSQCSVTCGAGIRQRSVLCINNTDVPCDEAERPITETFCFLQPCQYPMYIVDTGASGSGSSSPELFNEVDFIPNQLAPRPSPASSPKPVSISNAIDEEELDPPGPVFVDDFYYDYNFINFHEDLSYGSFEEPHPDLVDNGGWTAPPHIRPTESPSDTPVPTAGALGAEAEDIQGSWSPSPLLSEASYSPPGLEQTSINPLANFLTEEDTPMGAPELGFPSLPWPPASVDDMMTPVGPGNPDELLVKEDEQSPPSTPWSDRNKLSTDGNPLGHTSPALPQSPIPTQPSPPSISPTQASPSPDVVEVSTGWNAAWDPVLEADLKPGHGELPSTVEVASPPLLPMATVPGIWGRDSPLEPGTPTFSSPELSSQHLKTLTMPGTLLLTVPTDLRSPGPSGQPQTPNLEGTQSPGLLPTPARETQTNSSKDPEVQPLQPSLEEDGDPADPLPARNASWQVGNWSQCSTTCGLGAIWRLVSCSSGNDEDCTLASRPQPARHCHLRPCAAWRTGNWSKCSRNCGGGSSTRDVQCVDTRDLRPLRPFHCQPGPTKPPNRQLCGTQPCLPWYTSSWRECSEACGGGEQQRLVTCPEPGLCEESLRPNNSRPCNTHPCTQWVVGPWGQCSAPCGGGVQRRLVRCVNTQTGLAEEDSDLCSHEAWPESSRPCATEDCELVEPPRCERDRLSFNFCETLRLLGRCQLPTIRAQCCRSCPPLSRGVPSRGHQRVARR
# method.description: TMT10 TAILS N-terminomics, SMC2 experiment (process replicates, trypsin/AspN digest)
# Type: cell-based
# assay.context: SMC2_TAILS HC; log fold change, mEQ over Luc

# substance, logFC.mEQ.over.Luc
measured = [
    ("FBN1_29 (LEAGNVKETR; listed as Homo sapiens)", "−0.24"),
    ("DIS3L_75 (FPELKGIIFMQTACQAVQHQR; listed as Homo sapiens)", "−0.02"),
    ("FN1_40 (QSPVAVSQSKPGCYDNGKHYQINQQWER; listed as Homo sapiens)", "−0.06"),
    ("ACTN4_5 (HAANQSYQYGPSSAGNGAGGGGSMG; listed as Homo sapiens)", 0.00),
    ("CALU_176 (FTAFLHPEEY; listed as Homo sapiens)", "−0.01"),
    ("CAP1_300 (FSAPKPQTSPSPKR; listed as Homo sapiens)", 0.09),
    ("HSPG2_275 (LLPGSVR; listed as Homo sapiens)", "−0.36"),
    ("AMER2_654 (LAGTTIRATACH; listed as Homo sapiens)", 0.05),
    ("FLNA_689 (VNKPAEFTV; listed as Homo sapiens)", "−1.45"),
    ("FN1_1693 (LQPTVEYVVSVYAQNPSG; listed as Homo sapiens)", "−0.07"),
    ("FN1_36 (MVQPQSPVAVSQSKPGCYDNGKHYQINQQWER; listed as Homo sapiens)", "−0.11"),
    ("KRT28_2 (SLQFSNGSR; listed as Homo sapiens)", "−0.34"),
    ("FN1_99 (DKYTGNTYR; listed as Homo sapiens)", "−0.08"),
    ("COL1A2_1028 (LQGLPGIAGHHGDQGAPGSVGPAGPR; listed as Homo sapiens)", "−0.25"),
    ("CCDC80_66 (LEEPNLQPLQR; listed as Homo sapiens)", "−0.13"),
    ("LOX_126 (QAGYSTSR; listed as Homo sapiens)", "−0.26"),
    ("FBLN2_259 (ALGPPAPVQAKAR; listed as Homo sapiens)", "−0.27"),
    ("GSN_413 (HIANVER; listed as Homo sapiens)", 0.18),
    ("ECM1_44 (AAPPSPPLSR; listed as Homo sapiens)", "−0.28"),
    ("KCND1_436 (RLAKSGTTNAFLQYKQNGGLE; listed as Homo sapiens)", "−0.14"),
    ("FN1_2113 (FVTHPGY; listed as Homo sapiens)", "−0.19"),
]

---

# logFC.mWT.over.Luc listing for each entry below
# study.target: mouse ADAMTS7 (Mus musculus)
# Construct: Full-length mouse Adamts7 1-1857 (Uniprot Q68SA9, WT or E373Q catalytic mutant); expressed in transfected cells; host or cells: Human Coronary Artery Smooth Muscle Cells (HCA-SMC, Lonza), adenovirus 50 MOI
# Sequence (Q68SA9 221-1657): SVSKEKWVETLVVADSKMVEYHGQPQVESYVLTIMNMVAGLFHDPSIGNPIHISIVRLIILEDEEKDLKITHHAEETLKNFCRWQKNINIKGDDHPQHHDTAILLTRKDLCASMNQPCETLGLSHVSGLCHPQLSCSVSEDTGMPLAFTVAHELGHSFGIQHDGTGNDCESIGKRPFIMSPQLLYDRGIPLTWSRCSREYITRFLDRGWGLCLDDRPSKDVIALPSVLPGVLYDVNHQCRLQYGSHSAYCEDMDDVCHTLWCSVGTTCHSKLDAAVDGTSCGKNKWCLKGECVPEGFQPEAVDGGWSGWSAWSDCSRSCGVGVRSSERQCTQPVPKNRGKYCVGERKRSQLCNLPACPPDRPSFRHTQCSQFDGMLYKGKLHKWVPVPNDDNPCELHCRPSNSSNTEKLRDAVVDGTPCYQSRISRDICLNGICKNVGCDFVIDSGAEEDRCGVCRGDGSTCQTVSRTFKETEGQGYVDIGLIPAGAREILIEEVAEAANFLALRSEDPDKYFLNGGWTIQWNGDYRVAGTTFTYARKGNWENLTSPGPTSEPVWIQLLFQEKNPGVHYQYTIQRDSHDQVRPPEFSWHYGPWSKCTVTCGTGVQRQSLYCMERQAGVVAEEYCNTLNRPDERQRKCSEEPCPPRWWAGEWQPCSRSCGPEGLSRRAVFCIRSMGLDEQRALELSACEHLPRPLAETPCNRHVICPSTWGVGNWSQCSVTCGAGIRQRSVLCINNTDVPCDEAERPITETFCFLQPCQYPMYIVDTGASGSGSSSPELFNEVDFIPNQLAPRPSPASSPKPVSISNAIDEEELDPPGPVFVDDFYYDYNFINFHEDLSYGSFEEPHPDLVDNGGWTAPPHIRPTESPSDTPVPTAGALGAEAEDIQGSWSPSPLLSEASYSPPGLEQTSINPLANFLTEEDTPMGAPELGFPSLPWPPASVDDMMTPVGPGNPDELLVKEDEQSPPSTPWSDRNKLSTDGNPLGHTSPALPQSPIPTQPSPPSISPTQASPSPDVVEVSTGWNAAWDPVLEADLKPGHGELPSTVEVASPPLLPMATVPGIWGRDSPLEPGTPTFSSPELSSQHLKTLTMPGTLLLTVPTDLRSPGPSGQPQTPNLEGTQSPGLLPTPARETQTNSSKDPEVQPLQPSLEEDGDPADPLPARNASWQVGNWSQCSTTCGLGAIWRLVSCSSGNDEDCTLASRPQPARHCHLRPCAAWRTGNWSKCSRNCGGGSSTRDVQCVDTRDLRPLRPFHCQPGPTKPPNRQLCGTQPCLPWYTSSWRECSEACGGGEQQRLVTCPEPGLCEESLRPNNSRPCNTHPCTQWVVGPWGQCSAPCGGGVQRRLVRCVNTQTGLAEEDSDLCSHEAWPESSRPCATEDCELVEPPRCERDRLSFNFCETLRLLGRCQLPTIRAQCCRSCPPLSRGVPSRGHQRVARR
# method.description: TMT10 TAILS N-terminomics, HUVEC experiment (process replicates, trypsin/AspN digest)
# Format: cell-based, human
# assay.context: HUVEC TAILS HC; log fold change of N-terminal peptide, Ad-mADAMTS7 WT over Luc
Square brackets hold non-standard residues; d marks the D form. Ends that are not written are not given here.
observed.property: logFC.mWT.over.Luc

# substance, observed.property, val
data = [
    ("FN1_36 (MVQPQSPVAVSQSKPGCYDNGKHYQINQQWER; listed as Homo sapiens)", "logFC.mWT.over.Luc", 2.98),
    ("LTBP3_164 (LSTGALPPLAPEG; listed as Homo sapiens)", "logFC.mWT.over.Luc", 1.82),
    ("FN1_1656 (SSSPVTGYR; listed as Homo sapiens)", "logFC.mWT.over.Luc", 1.56),
    ("THBS2_290 (LSENLKR; listed as Homo sapiens)", "logFC.mWT.over.Luc", 5.05),
    ("FN1_34 ([code q]QMVQPQSPVAVSQSKPGCY; not fully specified (residue 3); listed as Homo sapiens)", "logFC.mWT.over.Luc", 1.37),
    ("NID1_360 (FHQQHPQVI; listed as Homo sapiens)", "logFC.mWT.over.Luc", 1.48),
    ("FN1_1624 (LVQTAVTTIPAPT; listed as Homo sapiens)", "logFC.mWT.over.Luc", 1.40),
    ("FSTL1_290 (LQKHQETA; listed as Homo sapiens)", "logFC.mWT.over.Luc", 2.34),
    ("LTBP1_393 (LTATNFR; listed as Homo sapiens)", "logFC.mWT.over.Luc", 3.14),
    ("PTBP1_376 (AAAAAGR; listed as Homo sapiens)", "logFC.mWT.over.Luc", 1.11),
    ("FN1_35 ([code q]MVQPQSPVAVSQSKPGCY; not fully specified (residue 2); listed as Homo sapiens)", "logFC.mWT.over.Luc", 2.31),
]
